System Under Test: human MC4R receptor (human, UniProt P32245 1-332)
Sequence (P32245 whole entry): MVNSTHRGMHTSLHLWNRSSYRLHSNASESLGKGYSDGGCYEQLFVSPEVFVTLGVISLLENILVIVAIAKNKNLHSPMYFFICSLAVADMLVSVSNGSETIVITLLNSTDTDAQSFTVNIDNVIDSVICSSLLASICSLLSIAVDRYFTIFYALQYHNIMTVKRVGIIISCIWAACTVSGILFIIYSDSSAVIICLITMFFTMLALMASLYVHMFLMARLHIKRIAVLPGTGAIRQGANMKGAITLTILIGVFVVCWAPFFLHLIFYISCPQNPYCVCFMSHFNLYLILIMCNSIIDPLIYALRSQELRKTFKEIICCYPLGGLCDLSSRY
Test Description: cell-based or functional assay
Starred links: 1 amine or outer side, 2 acyl side, 3 side chain; linkers in the order of their positions; H or OH if unused. Positions of bridges follow the written chain, without caps; N, C: chain ends. Non-standard residues stand in square brackets, D forms with d. Primed or numbered codes have the meaning given here. dPhe(4-NHAc) = 4-acetamido-D-phenylalanine, CC(=O)Nc1ccc(C[C@@H](N[*:1])C(=O)[*:2])cc1; dTyr(4-OMe)″ = O-methyl-D-tyrosine, COc1ccc(C[C@@H](N[*:1])C(=O)[*:2])cc1; Phe(4-Br) = N[C@@H](Cc1ccc(Br)cc1)C(=O)O; dPhe(4-Br) = N[C@H](Cc1ccc(Br)cc1)C(=O)O; d(αMeF) = C[C@@](N)(Cc1ccccc1)C(=O)O; dTic = O=C(O)[C@H]1Cc2ccccc2CN1; Cit = NC(=O)NCCC[C@H](N)C(=O)O; Nle = CCCC[C@H](N)C(=O)O; Aib = CC(C)(N)C(=O)O
Endpoint Label: MC4R selectivity vs MC3R

Solved entries (count: 6):
Ac-RC[dA]R[dPhe(4-NHAc)]R[dW]C-NH2 (disulfide 2-8) [CTX-1245]    0.02
Ac-RC[dA]R[dTic]R[dW]C-NH2 (disulfide 2-8) [CTX-1273]    0.64
Ac-RC[dA]R[d(αMeF)]R[dW]C-NH2 (disulfide 2-8; SMILES CC(=O)N[C@@H](CCCNC(=N)N)C(=O)N[C@H]1CSSC[C@@H](C(N)=O)NC(=O)[C@@H](Cc2c[nH]c3ccccc23)NC(=O)[C@H](CCCNC(=N)N)NC(=O)[C@@](C)(Cc2ccccc2)NC(=O)[C@H](CCCNC(=N)N)NC(=O)[C@@H](C)NC1=O) [CTX-1279]    0.61
Ac-CGR[dPhe(4-Br)]RFC-NH2 (disulfide 1-7) [CTX-1640]    3.09
Ac-RC[dA]R[Phe(4-Br)]RWC-NH2 (disulfide 2-8) [CTX-1212]    0.07
Ac-R[Nle]CR[dTyr(4-OMe)″]RWC-NH2 (disulfide 3-8; SMILES CCCC[C@H](NC(=O)[C@H](CCCNC(=N)N)NC(C)=O)C(=O)N[C@H]1CSSC[C@@H](C(N)=O)NC(=O)[C@H](Cc2c[nH]c3ccccc23)NC(=O)[C@H](CCCNC(=N)N)NC(=O)[C@@H](Cc2ccc(OC)cc2)NC(=O)[C@H](CCCNC(=N)N)NC1=O) [CTX-1614]    1.89

Next binder, please.
## Input Any idea what MC4R selectivity vs MC3R was measured for Ac-RC[Aib]R[dF][Cit][dW]C-NH2 (disulfide 2-8) [CTX-1271] ?
## Output 1.63
